target of assay: PRP Construct (signal peptide + 10 amino acids of Prion protein fused to HaloTag-HiBit) (Homo sapiens, UniProt P61619)
Sequence (P61619 whole entry, looked up, the tested form may be a part): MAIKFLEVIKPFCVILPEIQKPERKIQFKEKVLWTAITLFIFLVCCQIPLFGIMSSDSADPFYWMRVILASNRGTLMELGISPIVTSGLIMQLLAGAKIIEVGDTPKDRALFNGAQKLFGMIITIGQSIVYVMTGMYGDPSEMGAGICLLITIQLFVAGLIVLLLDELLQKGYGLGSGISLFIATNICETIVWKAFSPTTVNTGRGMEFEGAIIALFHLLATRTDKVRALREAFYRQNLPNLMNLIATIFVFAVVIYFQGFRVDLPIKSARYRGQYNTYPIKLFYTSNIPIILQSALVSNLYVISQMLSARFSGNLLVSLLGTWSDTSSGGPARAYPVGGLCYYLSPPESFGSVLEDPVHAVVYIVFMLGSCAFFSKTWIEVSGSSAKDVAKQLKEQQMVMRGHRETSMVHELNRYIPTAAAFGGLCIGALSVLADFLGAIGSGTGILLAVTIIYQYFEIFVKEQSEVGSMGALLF
test description: cell-based
pIC50: −log10 of the molar value.
Listed below: pIC50 values for each entry.

{"compound": "CN1CCCC1c1csc(Nc2ncccn2)n1 (stereo not drawn)", "pIC50": "< 4.52"}
{"compound": "CC(C)OC(C)(C)c1csc(NC(=O)NCc2ccncc2)n1", "pIC50": "< 4.52"}
{"compound": "CC(C)OC(C)(C)c1csc(NC(=O)N(C)CCc2ccncc2)n1", "pIC50": "< 4.52"}
{"compound": "CC(C)OC(C)(C)c1csc(NC(=O)Nc2ccccc2Oc2ccccc2)n1", "pIC50": "< 4.52"}
{"compound": "CC(C)(C)c1csc(Nc2ncccc2CCc2ccncc2)n1", "pIC50": "4.52 to 5.00"}
{"compound": "CC(C)(C)C1CNC(NC(=O)c2cccn2Cc2ccncc2)=N1 (stereo not drawn)", "pIC50": "5.00 to 5.30"}

* * *

target of assay: PDCD1 Construct (signal peptide + 10 amino acids of Programmed Cell Death Receptor 1 fused to HaloTag-HiBit) (Homo sapiens)
Sequence (P61619 whole entry, the tested form may be a part): as the sequence (P61619 whole entry, looked up, the tested form may be a part) above
test description: HiBit assay, secretion of SP-HaloTag-HiBit fusion protein, PDCD1 construct
Format: cell-based
condition description: T-REx-293 cells, doxycycline-induced, Nano-Glo HiBiT Extracellular Detection
pIC50: −log10 of the molar value.

{"molecule": "CC(C)OC(C)(C)c1csc(NC(=O)c2ccnn2CCc2ccncc2)n1", "pIC50": "< 4.52"}
{"molecule": "CC(C)(C)C1CNC(NC(=O)c2cccn2Cc2ccncc2)=N1 (stereo not drawn)", "pIC50": "> 5.30"}
{"molecule": "CC(C)(C)c1nsc(NC(=O)c2cccn2Cc2ccncc2)n1", "pIC50": "> 5.30"}
{"molecule": "CC(C)OC(C)(C)c1csc(NC(=O)c2nccn2CCc2ccncc2)n1", "pIC50": "< 4.52"}
{"molecule": "Cc1cccc(Nc2nc(-c3ccc(-c4cccnc4)cc3)cs2)n1", "pIC50": "< 4.52"}
{"molecule": "CC(C)OC(C)(C)c1csc(Nc2nccc3ccn(Cc4ccncc4)c23)n1", "pIC50": "5.00 to 5.30"}
{"molecule": "c1ccc(N2CCC[C@@H]2c2csc(Nc3ncccc3OCc3ccncc3)n2)cc1", "pIC50": "5.00 to 5.30"}
{"molecule": "CN1CCN(c2nsc(NC(=O)c3cc(F)cn3Cc3ccncc3)n2)CC1", "pIC50": "< 4.52"}
{"molecule": "O=C(Nc1nc(/C=C/c2ccccc2)ns1)c1cc(F)cn1Cc1ccncc1", "pIC50": "> 5.30"}

* * *

Listed below: IC50 values for each entry.
target of assay: PRP Construct (signal peptide + 10 amino acids of Prion protein fused to HaloTag-HiBit) (Homo sapiens, UniProt P61619)
test description: cell-based
measurement kind: IC50

{"compound": "Cc1ccc(Nc2nc(C3CCCN3Cc3cnc[nH]3)cs2)nc1 (stereo not drawn)", "result": "> 30 µM"}
{"compound": "CC(C)OC(C)(C)c1csc(Nc2ccc(C(=O)c3ccccc3)cc2)n1", "result": "> 30 µM"}
{"compound": "O=C(Nc1nc([C@H]2CCCN2c2ccccc2)cs1)OCCc1ccncc1", "result": "> 30 µM"}
{"compound": "c1ccc(N2CCC[C@@H]2c2csc(Nc3ncccc3OCc3ccncc3)n2)cc1", "result": "< 5 µM"}
{"compound": "O=C(NCc1ccncc1)Nc1nc([C@H]2CCCN2c2ccccc2)cs1", "result": "> 30 µM"}
{"compound": "Cc1ccc(Nc2nc(C3CCCN3C)cs2)nc1 (stereo not drawn)", "result": "> 30 µM"}
{"compound": "CN(CCc1ccncc1)C(=O)Nc1nc([C@H]2CCCN2c2ccccc2)cs1", "result": "> 30 µM"}
{"compound": "C[C@@H](OCc1ccncc1)C(=O)Nc1nc([C@H]2CCCN2c2ccccc2)cs1", "result": "10 to 30 µM"}
{"compound": "CC(C)OC(C)(C)c1csc(NC(=O)OCCc2ccncc2)n1", "result": "> 30 µM"}
